Protocol Description: Drug absorption in human assessed as human intestinal absorption rate
Assay type: ADME, tissue-based, Intestine
Measure Name: log10(%HIA +10)
No unit in the answer, only the number.

> print(dat)
                                   molecule  observed
1             Nc1cc(N2CCCCC2)nc(N)[n+]1[O-]     2.033
2  CN1CCN2c3ccccc3Cc3ccccc3C2C1 (stereo not given)     1.903
3            O=C(O)Cc1ccccc1Nc1c(Cl)cccc1Cl     2.041
4        OC(Cn1cncn1)(Cn1cncn1)c1ccc(F)cc1F     2.027
5           COc1cc(Cc2cnc(N)nc2N)cc(OC)c1OC     2.029
6  N#C[C@H](O[C@@H]1O[C@H](CO[C@@H]2O[C@H](CO)[C@@H](O)[C@H](O)[C@H]2O)[C@@H](O)[C@H](O)[C@H]1O)c1ccccc1     1.176
7  CCN1CCCC1CNC(=O)c1cc(S(=O)(=O)CC)ccc1OC (stereo not given) [SULTOPRIDE]     1.996
8  Cn1c(=O)c2c(ncn2CCCNCC(O)c2cc(O)cc(O)c2)n(C)c1=O (stereo not given)     1.845

Consider now this further molecule.
Retrieve log10(%HIA +10) measured for COCC1=C(C(=O)OC(C)OC(=O)OC(C)C)N2C(=O)[C@@H](NC(=O)/C(=N\OC)c3csc(N)n3)[C@H]2SC1 (stereo not given in full) and print it.
1.778

* * *

List of log10(%HIA +10) values.
Protocol Description: Drug absorption in human assessed as human intestinal absorption rate
Assay type: ADME, tissue-based, Intestine
No unit in the answer, only the number.

> print(dat)
                       compound     measure.name  observed
1  CC[C@@H](CO)NCCN[C@@H](CC)CO  log10(%HIA +10)     1.954

Retrieve log10(%HIA +10) measured for CC(=O)NCCCS(=O)(=O)O [ACAMPROSATE] and print it.
1.322

Retrieve log10(%HIA +10) measured for N[C@@H](C(=O)N[C@@H]1C(=O)N2C(C(=O)O)=C(CSc3c[nH]nn3)CS[C@H]12)c1ccc(O)cc1 and print it.
1.934

Retrieve log10(%HIA +10) measured for NS(=O)(=O)c1cc2c(cc1Cl)N=CNS2(=O)=O [CHLOROTHIAZIDE] and print it.
1.528

Retrieve log10(%HIA +10) measured for COc1ccc2c(c1)c(CC(=O)O)c(C)n2C(=O)c1ccc(Cl)cc1 and print it.
2.041

Retrieve log10(%HIA +10) measured for Cn1c(=O)c2c(ncn2C)n(C)c1=O and print it.
2.041

Retrieve log10(%HIA +10) measured for CC(C)(C)NCC(O)COc1cccc2c1CC(O)C(O)C2 (centres undefined) and print it.
1.613

Retrieve log10(%HIA +10) measured for CC(C(=O)O)c1cccc(C(=O)c2ccccc2)c1 (centres undefined) and print it.
2.009

Retrieve log10(%HIA +10) measured for COc1ccc2c3c1O[C@H]1[C@@H](O)C=C[C@H]4[C@@H](C2)N(C)CC[C@@]341 and print it.
2.021

* * *

List of log10(%HIA +10) values.
Protocol Description: Drug absorption in human assessed as human intestinal absorption rate
Format: ADME, tissue-based, Intestine
No unit in the answer, only the number.

Compound	log10(%HIA +10)
CCCCC(=O)N(Cc1ccc(-c2ccccc2-c2nnn[nH]2)cc1)[C@H](C(=O)O)C(C)C	1.813
N=c1nc2n(cc1F)[C@@H]1O[C@H](CO)[C@@H](O)[C@@H]1O2 [FLUROCITABINE]	1.623
CCOC(=O)[C@H](CCc1ccccc1)N[C@@H](C)C(=O)N1CCC[C@H]1C(=O)O.O=C(O)/C=C\C(=O)O [ENALAPRIL MALEATE]	1.881
C[C@H]1O[C@H](O[C@H]2[C@H](O)[C@@H](O)[C@@H](O[C@H]3[C@H](O)[C@@H](O)C(O)O[C@@H]3CO)O[C@@H]2CO)[C@H](O)[C@@H](O)[C@@H]1N[C@H]1C=C(CO)[C@@H](O)[C@H](O)[C@H]1O (stereo partly specified) [ACARBOSE]	1.079
CCN[C@@H]1C[C@H](N)[C@@H](O[C@H]2OC(CN)=CC[C@H]2N)[C@H](O)[C@H]1O[C@H]1OC[C@](C)(O)[C@H](NC)[C@H]1O [NETILMICIN]	1

Consider now this further compound.
Retrieve log10(%HIA +10) measured for O=C(O)CN(CCN(CC(=O)O)CC(=O)O)CC(=O)O [EDETIC ACID] and print it.
1.176

* * *

Protocol Description: Drug absorption in human assessed as human intestinal absorption rate
Type: ADME, tissue-based, Intestine
List of log10(%HIA +10) values.
No unit in the answer, only the number.

Solved entries (count: 8):
Molecule	Measure Name	Observed
CC(=O)Oc1ccccc1C(=O)O	log10(%HIA +10)	2.041
COCC(=O)O[C@]1(CCN(C)CCCc2nc3ccccc3[nH]2)CCc2cc(F)ccc2[C@@H]1C(C)C	log10(%HIA +10)	1.898
O=C(COCCOCCOCC(=O)Nc1c(I)cc(I)c(C(=O)O)c1I)Nc1c(I)cc(I)c(C(=O)O)c1I	log10(%HIA +10)	1.176
CC(C)(C)NCC(O)c1ccc(O)c(CO)n1 (centres undefined)	log10(%HIA +10)	1.845
Nc1ccn([C@H]2CC[C@@H](CO)O2)c(=O)n1	log10(%HIA +10)	1.978
CC(=O)N(CC(O)CO)c1c(I)c(C(=O)NCC(O)CO)c(I)c(C(=O)NCC(O)CO)c1I (centres undefined) [IOHEXOL]	log10(%HIA +10)	1.176
C=CCc1ccccc1OCC(O)CNC(C)C (centres undefined)	log10(%HIA +10)	2.016
NCC[C@H](O)C(=O)N[C@@H]1C[C@H](N)[C@@H](O[C@H]2O[C@H](CN)CC[C@H]2N)[C@H](O)[C@H]1O[C@H]1O[C@H](CO)[C@@H](O)[C@H](N)[C@H]1O	log10(%HIA +10)	1

Consider now this further molecule.
Retrieve log10(%HIA +10) measured for CCOC(=O)[C@H](CCc1ccccc1)N[C@@H](C)C(=O)N1[C@H](C(=O)O)C[C@@H]2CCC[C@@H]21 and print it.
1.845

* * *

Protocol Description: Drug absorption in human assessed as human intestinal absorption rate
Format: ADME, tissue-based, Intestine
List of log10(%HIA +10) values.
No unit in the answer, only the number.

Retrieve log10(%HIA +10) measured for N=C(N)c1ccc(OCCCCCOc2ccc(C(=N)N)cc2)cc1 [PENTAMIDINE] and print it.
1

Retrieve log10(%HIA +10) measured for NS(=O)(=O)c1cc(C(=O)O)c(NCc2ccco2)cc1Cl [FUROSEMIDE] and print it.
1.851

Retrieve log10(%HIA +10) measured for CC(=O)OCC(CCn1cnc2cnc(N)nc21)COC(C)=O [FAMCICLOVIR] and print it.
1.903

* * *

List of log10(%HIA +10) values.
Protocol Description: Drug absorption in human assessed as human intestinal absorption rate
Format: ADME, tissue-based, Intestine
No unit in the answer, only the number.

Compound	log10(%HIA +10)
CC(C)(C)NCC(O)c1cc(O)cc(O)c1 (stereo not drawn) [TERBUTALINE]	1.857
CC[C@H](C)C(=O)O[C@H]1C[C@@H](C)C=C2C=C[C@H](C)[C@H](CC[C@@H]3C[C@@H](O)CC(=O)O3)[C@H]21 [LOVASTATIN]	1.608
O=C1Cc2cc(CCN3CCN(c4nsc5ccccc45)CC3)c(Cl)cc2N1 [ZIPRASIDONE]	1.845
N=C(N)N/N=C/c1c(Cl)cccc1Cl [GUANABENZ]	1.954
CC(C)NCC(O)COc1cccc2ccccc12 (stereo not drawn) [PROPRANOLOL]	2.037
COc1ccc2c3c1O[C@H]1C(=O)CC[C@@]4(O)[C@@H](C2)N(C)CC[C@]314 [OXYCODONE]	1.845
NC[C@H]1O[C@H](O[C@H]2[C@H](O)[C@@H](O[C@H]3O[C@H](CO)[C@@H](O)[C@H](N)[C@H]3O)[C@H](N)C[C@@H]2N)[C@H](O)[C@@H](O)[C@@H]1O [KANAMYCIN]	1.041

Consider now this further compound.
Retrieve log10(%HIA +10) measured for CO/N=C(\C(=O)N[C@@H]1C(=O)N2C(C(=O)O)=C(CSc3nc(C)c(CC(=O)O)s3)CS[C@H]12)c1csc(N)n1 [CEFODIZIME] and print it.
1

* * *

Protocol Description: Drug absorption in human assessed as human intestinal absorption rate
Type: ADME, tissue-based, Intestine
List of log10(%HIA +10) values.
No unit in the answer, only the number.

Solved entries (count: 4):
Compound	log10(%HIA +10)
O=C(c1ccccc1)c1ccc2n1CCC2C(=O)O (configuration not stated)	2
CC(C)NCC(O)c1ccc(NS(C)(=O)=O)cc1 (configuration not stated)	2.021
CO/N=C(\C(=O)N[C@@H]1C(=O)N2C(C(=O)O)=C(CSc3nc(=O)c(=O)[nH]n3C)CS[C@H]12)c1csc(N)n1	1.041
Nc1ncnc2c1ncn2CCOCP(=O)(O)O	1.342

Retrieve log10(%HIA +10) measured for COc1ccccc1N1CCN(CCCNc2cc(=O)n(C)c(=O)n2C)CC1 and print it.
1.945

Retrieve log10(%HIA +10) measured for CCOC(=O)[C@H](CCc1ccccc1)N[C@@H](C)C(=O)N1[C@H](C(=O)O)C[C@H]2CCCC[C@@H]21 and print it.
1.778

Retrieve log10(%HIA +10) measured for CCCCNC(=O)NS(=O)(=O)c1ccc(C)cc1 [TOLBUTAMIDE] and print it.
1.978

Retrieve log10(%HIA +10) measured for COc1cccc(C(=O)CCN[C@@H](C)[C@H](O)c2ccccc2)c1 and print it.
1.978

Retrieve log10(%HIA +10) measured for [H]/N=C(/N)N[C@H]1[C@H](O)[C@@H](O)[C@H](O[C@@H]2O[C@@H](C)[C@](O)(C=O)[C@H]2O[C@@H]2O[C@@H](CO)[C@H](O)[C@@H](O)[C@@H]2NC)[C@@H](N/C(N)=N\[H])[C@@H]1O and print it.
1.041

Data origin, for the record: ChEMBL document CHEMBL1649380
